# assay: yeast display, Sf9 membrane polyspecificity reagent, FACS + sequencing; frameworks hold sequencing errors
assayEndpoint: polyreactivity (PSR sort gate)

Recorded results for 8 sequences are shown here.
{"entrySequence": "QVQLVESGGGLVQAGGSLRLSCAASGYIFGQYAMGWYRQAPGKERELVADITRGGDTYYADSVKGRFTISRDNAKNTVYLQMNSLKPEDTAVYYCAADSFYWAWQYDYWGQGTQVTVSS", "assayEndpoint": "polyreactivity (PSR sort gate)", "reportedMeasurement": "high polyreactivity"}
{"entrySequence": "QVQLVESGGGLVQAGGSLRLSCAASGSTFTYYAMGWYRQAPGKERELVAAITRRGGSTYYADSVKGRFTISRDNAKNTVYLQMNSLIPEDTAVYYCAKSTQIRAYIWDPYRISTYGYWGQGTQVTVSS", "assayEndpoint": "polyreactivity (PSR sort gate)", "reportedMeasurement": "high polyreactivity"}
{"entrySequence": "QVHLVESGGGLVQAGGSLRISGAASGSTFGTYAMGWYRQAPGKERELVAAITSGGSTDYADSVKGRFTISRDNAKNTVYLQMNSLKPEDTAVYYCTARGYGYLGRKGGYSYGYYYWGQGNQVTVSS", "assayEndpoint": "polyreactivity (PSR sort gate)", "reportedMeasurement": "low polyreactivity"}
{"entrySequence": "QLHLEESGGGLVQAGGSLRISCAASGSTFGIYAMGSYRQAPGKEREILAAISVGGGRTYYADTVKGRFTISRDNAKNTVLLQMNSLKPEDTAVYYCAVYGFWGLGTQVTVSS", "assayEndpoint": "polyreactivity (PSR sort gate)", "reportedMeasurement": "high polyreactivity"}
{"entrySequence": "QVQLVESVGGLVQAGGSLRLSCAASGSTFVDYAMGWYRQAPGKERELVAGINGSGGSTYYADSVKGRFTISRDNAKNTVYLQMNSLKPEDTAVYYCNARNPWRKRSQGYSWGQGTQVTVSS", "assayEndpoint": "polyreactivity (PSR sort gate)", "reportedMeasurement": "low polyreactivity"}
{"entrySequence": "QVQLVESGGGLVQAGGSLRLSCAASGSIFEPYAMGWYRQAPGKERELVAAIRVSGGSTYYADSVKGRFTISRDNAKNTVYLQMNSLKPEDTAVYYCAADWWSRYYYWGQGTQVTVSS", "assayEndpoint": "polyreactivity (PSR sort gate)", "reportedMeasurement": "high polyreactivity"}
{"entrySequence": "QVQLVESGGGLVQAGGSLRLSCAASGNTFYDYGMGWYRQAPGKERELVAGIDGSSTYYADSVKGRFTISRDNAKNTVYLQMNSLKPEDTAVYYCAAYVGSYVSYRAYPRIYYYWGQGTQVTLSS", "assayEndpoint": "polyreactivity (PSR sort gate)", "reportedMeasurement": "low polyreactivity"}
{"entrySequence": "QVQLVESGGGLVQAGGSLRLSCAASGIIFYDYAMGWYRQAPGKERELVAAITSNGDNTYYADSVKGRFTISRDNAKNTVYLPMNSLKPEDTAVYYCAVDGSFAADFDNYLEEYGYWGQGTQVTVSS", "assayEndpoint": "polyreactivity (PSR sort gate)", "reportedMeasurement": "low polyreactivity"}

Parameters: items (list). Returns: polyreactivity (PSR sort gate) for each item.
1. QVQRVESGGGLVQAGGSLRLTCAASGLTFRTYAMGWYRQAPGKERELVAAISGTGGTTYYADSVKGRFTISRDNAKNTVYLQMNSLKPEDTAVYYCNKRWRRPYPYDYWGQGSQVTVSS
2. QVQLVESGGGLVQAGGSLRLSCAASGSIFFINAMGWYRQAPGKERELVASISQSGVSTYYADSVKGRFTISRDNAKNTVYLQMNSLKPEDTAVYYCATGPVRRARYVWSYTYYYWGQGTQVTVSS
3. QVQLVESGGGLVQAGGSIRLSCAASGSIFEVNAMGWYRQAPGKERELVAGISNADSTNYADSVKGRFTISRDNAKNTVYLQMNSLKPEDTAVYYCATDLYRDPPKDLLGPEYDYWGQGTQVTVSS

Outgoing:
1: high polyreactivity; 2: low polyreactivity; 3: low polyreactivity
